Hi there, I'd appreciate the recorded TGI for every entry that follows.
test system: OVCAR-5 ovarian; assay: NCI tumour cell line growth inhibition, 48 h
Quick reminder: number only, in µM, skip the unit.

Request: Request body: readout TGI, system OVCAR-5 ovarian, query "CC1(C)N=C(N)N=C(N)N1c1ccc(CCCCc2ccc(Cl)cc2S(=O)(=O)F)c(Cl)c1" . Return the value.
Result: 22.8

Request: Missing value: TGI, OVCAR-5 ovarian, entry "Brc1ccc2[nH]cc(-c3csc(-c4c[nH]c5ccccc45)n3)c2c1" . Fill in?
Result: 4.86

* * *

Record form. Attribute: TGI. Fill in for each entry.
test system: A498 renal; experiment: NCI tumour cell line growth inhibition, 48 h
Just the number in µM, nothing appended.

Request: Could you share what TGI was measured for "COc1cccc(CC(C)=C(c2ccc(OCCN(C)C)cc2)c2ccc(OCCN(C)C)cc2)c1" , tested on A498 renal?
Result: 9.63

Request: Quick check: TGI on A498 renal, item "Cn1c(I)c(C#CCO[Si](C)(C)C(C)(C)C)c(=O)[nH]c1=O" ?
Result: 38

* * *

Field: TGI. Provide a value for each of the molecules that follow.
tested on: NCI-H460 lung; assay: NCI tumour cell line growth inhibition, 48 h

Request: For the molecule shown here, Cc1ccc(C2SCC(=O)N2c2ccc(-n3c(-c4ccccc4)nc4ccccc4c3=O)cc2)cc1 (stereo not drawn) , give the reported TGI.
Result: 27.6 µM

Request: Quick check: TGI of N#CC1C(=S)NC(c2ccccc2)=CC12CCCCC2 (stereo not drawn) ?
Result: > 100 µM

Request: Item under review: CC1=C(C(=O)Nc2ccc(F)c(Cl)c2)C(c2ccccc2O)NC(=S)N1 (stereo not drawn) . Reported TGI?
Result: > 50 µM

Request: Could you tell me which TGI is on file for "Cn1cc(C2=C(c3ccc(N)cc3)C(=O)NC2=O)c2ccccc21" ?
Result: > 25 µM

Request: Name the reported TGI value associated with the molecule "CSc1nc(=O)n(CCC#N)nc1SC"
Result: > 100 µM

Request: Quick one: TGI for O=[N+]([O-])C[C@@]12O[C@]3(O)C4C5CC(C6C5C3C61)C42 (stereo partly drawn) ?
Result: > 100 µM

Request: Requested field: TGI. Item: O=C1CCC(Cl)=CC2CCCN12 (stereo not drawn)
Result: > 100 µM

Request: Name the recorded TGI for CCCC(=O)OCC1OC(n2ccc(N)nc2=O)C(OC(=O)CCC)C1OC(=O)CCC (stereo not drawn) .
Result: > 100 µM

Request: Entry "CC(=O)OC(OC(C)=O)c1ccc2ccc3cccc4ccc1c2c34" has what TGI?
Result: 39.6 µM

Request: Can you share its TGI? I mean this molecule: "COc1ccccc1/C=N\N/C(N)=N\N=C\c1ccccc1OC"
Result: 4.37 µM

Request: TGI for "O=[N+]([O-])c1cccc(C2=NN(c3ccccc3)C[N+](c3ccc(Br)cc3)=N2)c1" ?
Result: > 100 µM

Request: Entry under review: COc1cc(C2C3C=CC=C4CC=CC(=C43)C3CCC(=O)N32)cc(OC)c1OC (stereo not drawn) . Reported TGI?
Result: > 100 µM

Request: Fill blank: measured TGI of the molecule "BrC1=C(Br)C2(SCCS2)[C@H]2C[C@@H]1c1ccccc12" is ____.
Result: > 100 µM

* * *

test system: UACC-62 melanoma; test: NCI tumour cell line growth inhibition, 48 h
Exercise: state measured TGI for each of the compounds provided.

Request: Item: "Nc1nn2cc(F)cnc2c1C(=O)Nc1cncc(F)c1N1CCC(C(=O)N2CCN(C3COC3)CC2)CC1" Test system: UACC-62 melanoma Read-out: TGI Value: ?
Result: 2.56 µM

Request: API: value(readout=TGI, system=UACC-62 melanoma) for record "O=C(Nc1ccc(Br)cc1F)c1cc(F)ccc1O"
Result: 1 µM

Request: Query for UACC-62 melanoma: what TGI does the record show for "NC(N)=NS(=O)(=O)c1ccc(NNc2c3ccccc3nc3c(C(=O)Nc4ccc(S(=O)(=O)Nc5ncccn5)cc4)cccc23)cc1" ?
Result: 48.2 µM

Request: Query the reported TGI for UACC-62 melanoma; item: "Cc1ccc(-n2cnc(C(=N)C#N)c2N)cc1"
Result: > 100 µM

Request: Give TGI (UACC-62 melanoma) of the following compound: CN1CC(=O)N2Cc3ccccc3-n3cccc3C2C1 (centres undefined)
Result: > 100 µM

Request: Please provide the recorded TGI for "c1ccc(-c2nnc(-c3ccccn3)s2)nc1" , tested on UACC-62 melanoma.
Result: > 100 µM

Request: Hello, I am looking for reported TGI with UACC-62 melanoma for COC(=O)C1=C(C(=O)OC)N(c2ccc(OC)cc2[N+](=O)[O-])C(c2ccc(C)cc2)=CC1c1ccc(OC)cc1OC (centres undefined) . Could you help?
Result: > 100 µM

Request: Hello, I am looking for reported TGI with UACC-62 melanoma for Cn1c(=O)c2c(ncn2CCNC(CO)C(O)c2ccc([N+](=O)[O-])cc2)n(C)c1=O (centres undefined) . Could you help?
Result: > 100 µM

Request: # returns recorded TGI (system: UACC-62 melanoma) for "O=C1c2cccc3c2C(=O)c2c(cccc21)OCCOCCOCCOCCO3"
Result: > 100 µM

Request: Could you share what TGI was measured for "O=S(=O)(O)CCCc1cccc2ccccc12" , tested on UACC-62 melanoma?
Result: > 100 µM

Request: Enter reported TGI observed with UACC-62 melanoma for "Nc1nc(Cl)cc(NCCCCCCCCNc2cc(Cl)nc(N)n2)n1"
Result: 95.3 µM

Request: I'm curious: which TGI was measured for "N#Cc1n[nH]n(-c2ccc(Br)cc2)c1=O" tested on UACC-62 melanoma?
Result: > 100 µM

Request: Kindly state the measured TGI obtained for COc1ccc(C2SC(N)=Nc3c2c(C)nn3C(=O)c2ccncc2)cc1OC (centres undefined) with UACC-62 melanoma.
Result: > 10 µM

Request: Form: Entry = CC1(C)/C(=N\NC(N)=O)C2CCC1C2 (centres undefined) | System = UACC-62 melanoma | TGI = ____
Result: > 100 µM

* * *

Would you kindly list TGI for each of these compounds?
tested on: OVCAR-8 ovarian; test: NCI tumour cell line growth inhibition, 48 h
Write it as a number; the unit µM goes unstated.

Request: Using the record for "CN(C)CCNC(=O)c1cccc2ccc(-c3ccc(O)cc3)nc12" , report its TGI.
Result: 4.13

Request: Name the reported TGI value associated with the compound "NC(=O)/C=C/C(=O)c1c(Cl)cccc1Cl"
Result: 3.27

* * *

Would you kindly list TGI for each of these compounds?
tested on: HS 578T breast; experiment: NCI tumour cell line growth inhibition, 48 h

Request: For the record "Cc1c(C)c2c(c(N)c1C#N)C(=O)N(NC(=O)c1ccccc1)C2=O" , what value of TGI is listed for HS 578T breast?
Result: > 100 µM

Request: Quick check: TGI on HS 578T breast, item "CC1(C)[C@@H](Cn2ccc(=O)[nH]c2=O)CC[C@@]1(C)CO" ?
Result: > 100 µM

Request: What reported TGI corresponds to "COC(=O)c1ccc(/C=C/c2cc(O)ccc2O)cc1" on HS 578T breast?
Result: > 100 µM

Request: Given the entry CCCC(=O)NC(NC1CCCCC1)(C(=O)OCC)C(F)(F)F (centres undefined) , what TGI was observed with HS 578T breast?
Result: > 100 µM

Request: Please provide the recorded TGI for "O=C(N/N=C(\c1ccccc1)c1ccccn1)NC1CCCCC1" , tested on HS 578T breast.
Result: > 100 µM

Request: Reported TGI for HS 578T breast, given "CC(=O)N(C(C)=O)c1ncc(-n2nc(-c3ccccc3)cc2-c2ccccc2)c(-c2ccccc2)n1" ?
Result: > 10 µM

Request: Test system HS 578T breast; read-out TGI; what value for "O=C(Nc1ccc(Nc2ccncc2)cc1)c1ccc([N+](=O)[O-])cc1" ?
Result: 25.9 µM

Request: Observed TGI on HS 578T breast for "Oc1ccc(Nc2ncnc3c2sc2ncccc23)cc1" , please.
Result: > 100 µM

Request: Hello, I am looking for reported TGI with HS 578T breast for "CN(C)CCNC(=O)c1cccc2ccc(-c3ccc(O)cc3)nc12" . Could you help?
Result: 13.4 µM

* * *

Consider the following compounds; for each one, report its TGI.
tested on: OVCAR-5 ovarian; test: NCI tumour cell line growth inhibition, 48 h

Request: Return reported TGI; argument: CC(C)C(CCl)NC(=O)c1cccc(C(=O)N[C@H](CCl)C(C)C)n1 (stereo in doubt)
Result: > 100 µM

Request: Data request, read-out TGI, for O=[N+]([O-])C[C@@]12O[C@]3(O)C4C5CC(C6C5C3C61)C42 (stereo partly drawn)
Result: > 100 µM

Request: Look at this compound and give its reported TGI. "CC(=O)N=C1N(/C=C2\C(=O)Oc3ccccc3C2=O)C(=O)/C(=C/c2cccc(Cl)c2Cl)N1C"
Result: > 100 µM
